Target: T1, 4H982-AA
T1 chain: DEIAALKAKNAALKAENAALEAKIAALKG
Assay: two-hybrid library CCmax;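 also: natural log of median RNA to DNA barcode read ratio; higher means stronger binding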
Details: mean of both orientations
Provide the recorded interaction score for the entries that follow.
When you answer, write just the number.

[Q] Please indicate interaction score recorded for DENAALEAEIAALKAKNAALEAKIAALKG [4H1142-AA]
[A] -1.22

[Q] Look up interaction score of DENAALKAKIAALKAENAALEAEIAALKG [4H1874-AA] and report it.
[A] -1.36

[Q] Give me measured interaction score, please, for this binder: DEIAALEAEIAALEAENAALKAKNAALKG [4H32-AA]
[A] -0.329

[Q] Complete the entry with interaction score for DENAALKAEIAALEAKNAALKAEIAALKG [4H1594-AA]
[A] 1.3

[Q] Please report interaction score for the following binder: DKNAALKAENAALEAEIAALEAKIAALKG [4H3718-AA]
[A] -1.15

[Q] Give interaction score for DKNAALKAKIAALEAENAALKAEIAALEG [4H3865-AA]
[A] -0.79

[Q] Answer with the recorded interaction score for the binder listed here: DKNAALEAEIAALEAKNAALKAKIAALEG [4H3133-AA]
[A] 0.112
